Details: acidic group

{"MOLECULE": "O=C1CCCCC1=O", "pKa": 10.3}
{"MOLECULE": "COCC(=O)NN", "pKa": 12.1}
{"MOLECULE": "O=C(O)c1ccc(I)cc1", "pKa": 3.99}
{"MOLECULE": "O=C(O)CC[C@H]1CC[C@H](O)CC1", "pKa": 4.86}
{"MOLECULE": "Cc1cnc(C(=O)O)s1", "pKa": 3.03}
{"MOLECULE": "O=P([O-])([O-])C([NH2+]Cc1ccncc1)c1ccccc1O (configuration not stated)", "pKa": 10.2}
{"MOLECULE": "CC(=O)C(Cc1ccc(Cl)cc1)C(C)=O", "pKa": 10.2}
{"MOLECULE": "Cc1ccc(SC2CC(=O)N2)cc1 (configuration not stated)", "pKa": 13.4}
{"MOLECULE": "CC(=O)[C@H]1CC=CC[C@@H]1C(=O)O", "pKa": 4.4}
{"MOLECULE": "CSc1cccc(O)c1", "pKa": 9.47}
{"MOLECULE": "Oc1onc2c1CC[NH+](Cc1ccccc1)CC2", "pKa": 3.3}
{"MOLECULE": "CC(C)(C)c1ccc(-c2c(O)c2=O)cc1", "pKa": 2.21}
{"MOLECULE": "CC(=O)N1CCc2noc(O)c2CC1", "pKa": 4.3}
{"MOLECULE": "Cc1ccc(S(N)(=O)=O)cc1C", "pKa": 9.62}
{"MOLECULE": "NNC(=O)c1ccccc1", "pKa": 12.4}
{"MOLECULE": "Cc1ccc(O)c2ncccc12", "pKa": 9.93}
{"MOLECULE": "O=S(O)Cc1ccccc1", "pKa": 1.86}
{"MOLECULE": "CC(C)(C(=O)O)C(C#N)c1ccccc1 (configuration not stated)", "pKa": 3.95}
{"MOLECULE": "CC1(C)OC(=O)CC(=O)O1", "pKa": 5.15}
{"MOLECULE": "O/N=C/c1ccccc1", "pKa": 10.8}
{"MOLECULE": "O=C(O)C1CCCOC1 (configuration not stated)", "pKa": 4.25}
{"MOLECULE": "C[NH+]1C[C@H](C(=O)O)C=C2c3cccc4[nH]cc(c34)C[C@@H]21", "pKa": 3.25}
{"MOLECULE": "O=[PH](O)c1ccccc1", "pKa": 1.63}
{"MOLECULE": "CC1(C)OC(=O)NC1=O", "pKa": 6.15}
{"MOLECULE": "O=c1cccc([O-])cc1O", "pKa": 9.52}
{"MOLECULE": "CC1(C)CC(=O)CC1=O", "pKa": 4.2}
{"MOLECULE": "Oc1ccc(O)c(Cl)c1", "pKa": 8.81}
{"MOLECULE": "O=[Se](O)c1cccc(-c2ccccc2)c1", "pKa": 4.87}
{"MOLECULE": "O=C(O)Cc1ccc2ccccc2c1", "pKa": 4.26}
{"MOLECULE": "O=C(Oc1ccc([N+](=O)[O-])cc1[N+](=O)[O-])c1ccc(O)cc1", "pKa": 7.68}
{"MOLECULE": "C[NH2+]C(C)C(=O)O (configuration not stated)", "pKa": 2.22}
{"MOLECULE": "Cn1c([O-])nc(=O)c2[nH]cnc21", "pKa": 11.7}
{"MOLECULE": "CCC1C(=O)COC1=O (configuration not stated)", "pKa": 4.29}
{"MOLECULE": "CC(=O)Nc1cccc(O)c1", "pKa": 9.38}
{"MOLECULE": "Nc1ccc(O)c([N+](=O)[O-])c1", "pKa": 7.81}
{"MOLECULE": "CC1(C)S[C@H]2[C@@H](NC(=O)Cc3ccccc3)C(=O)N2[C@@H]1C(=O)O", "pKa": 2.76}
{"MOLECULE": "CCCCN(C(=O)c1cc([N+](=O)[O-])ccc1O)c1ccc(/N=N/c2ccc3c(c2)OCCOCCOCCOCCOCCO3)cc1", "pKa": 6.3}
{"MOLECULE": "N#Cc1nn[nH]c1C#N", "pKa": 1.47}
{"MOLECULE": "C[NH+](C)CC(=O)O", "pKa": 1.99}
{"MOLECULE": "Nc1cccc[n+]1O", "pKa": 2.67}
{"MOLECULE": "Cn1c(=S)[nH]c2cc3c(cc21)CCCC3", "pKa": 10.8}
{"MOLECULE": "Oc1nc(C(F)(F)F)nc2[nH+]c[nH]c12", "pKa": 1.1}
{"MOLECULE": "CC1=C(O)C(O)=CC1", "pKa": 9.11}
{"MOLECULE": "O=S(=O)(O)c1cccc(C(F)(F)F)c1", "pKa": -6.93}
{"MOLECULE": "O=C1COC(=O)N1", "pKa": 5.84}
{"MOLECULE": "CCCCCC[NH2+]CCC(=O)O", "pKa": 3.61}
{"MOLECULE": "C=C/C(C)=C/[C@@H](C)C(=O)C[C@@H](O)CC1CC(=O)NC(=O)C1", "pKa": 11.2}
{"MOLECULE": "Cc1nn(C)c(O)c1Cc1ccccc1", "pKa": 10.9}
{"MOLECULE": "O=C([O-])[C@H](P)CC[C@H](P)C(=O)O", "pKa": 4.49}
{"MOLECULE": "On1nnc2ccccc21", "pKa": 4.6}
{"MOLECULE": "Cc1ccc(S(N)(=O)=O)cc1", "pKa": 9.89}
{"MOLECULE": "Cc1cccc(OC(O)(CBr)c2ccccc2)c1 (configuration not stated)", "pKa": 11.2}
{"MOLECULE": "CCC#CC(=O)O", "pKa": 2.6}
{"MOLECULE": "O=C([O-])CCC(=O)NOCc1ccccc1", "pKa": 10.2}
{"MOLECULE": "Fc1ccc(NC=S)cc1", "pKa": 11.2}
{"MOLECULE": "C[N+](C)(C)CCCC(=O)O", "pKa": 4.02}
{"MOLECULE": "O=C(O)/C=C(\\I)c1ccccc1", "pKa": 3.4}
{"MOLECULE": "CCCCCCCCCc1c(O)n[nH]c1-c1ccccc1", "pKa": 10.6}
{"MOLECULE": "[NH3+]CCCCCC(=O)O", "pKa": 4.37}
{"MOLECULE": "Cc1cc(Br)cc(Br)c1O", "pKa": 7.6}
{"MOLECULE": "CC(C)CCP(=O)(O)CCC(C)C", "pKa": 3.26}
{"MOLECULE": "CCC(C)C[C@H]([NH3+])C(=O)O (some centres not stated)", "pKa": 3.25}

All figures here come from the pKa sets of Baltruschat and Czodrowski (2020).
